Data provenance is patent US20230357395A1.

Target: T1, Human NKp30, construct BKM0179 (human, UniProt O14931 19-135, limits assumed)
T1 construct: Immobilized on a CM5 chip via anti-mouse Fc antibody, so it likely carries a mouse Fc; also called Human Nkp30 (BKM0179)
T1 sequence (looked up): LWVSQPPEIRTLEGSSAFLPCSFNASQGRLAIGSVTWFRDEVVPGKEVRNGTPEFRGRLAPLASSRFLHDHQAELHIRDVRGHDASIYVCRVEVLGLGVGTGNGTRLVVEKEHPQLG
Assay: SPR (BIAcore T200), human NKp30 BKM0179 captured via anti-mouse Fc on CM5, antibody injected 3.9-125 nM, 1:1 fit
METRIC_NAME: Kd (nM)
Numeric answer only, unit nM assumed.

>>> quantitative_readout("BJM1079 (BJM0411 Parental) (antibody, V domains shown) VH: EIQLLESGGGLVQPGGSLRLSCAVSGFSITTTGYHWNWVRQAPGKGLEWVGYIYSSGSTSYNPSLKSRFTISRDTSKNTFYLQMNSLRAEDTAVYYCARGDWHYFDYWGQGTMVTVSS VL: DSVTTQSPLSLPVTLGQPASISCSGEKLSDKYVHWYQQRPGQSPRMLIYENDRRPSGVPDRFSGSNSGNDATLKISRVEAEDVGVYFCQFWDSTNSAVFGGGTKVEIK")
1.26
>>> quantitative_readout("BKM0139 (scFv, also called BJM0411 VL-D92A) scFv: EIQLLESGGGLVQPGGSLRLSCAVSGFSITTTGYHWNWVRQAPGKGLEWVGYIYSSGSTSYNPSLKSRFTISRDTSKNTFYLQMNSLRAEDTAVYYCARGDWHYFDYWGQGTMVTVSSGGGGSGGGGSGGGGSGGGGSDSVTTQSPLSLPVTLGQPASISCSGEKLSDKYVHWYQQRPGQSPRMLIYENDRRPSGVPDRFSGSNSGNDATLKISRVEAEDVGVYFCQFWASTNSAVFGGGTKVEIK")
3.2
>>> quantitative_readout("BKM0141 (scFv, also called BJM0407 VL-N95A) scFv: EIQLLESGGGLVQPGGSLRLSCAVSGFSITTTGYHWNWVRQAPGKGLEWVGYIYSSGSTSYNPSLKSRFTISRDTSKNTFYLQMNSLRAEDTAVYYCARGDWHYFDYWGQGTMVTVSSGGGGSGGGGSGGGGSGGGGSSSETTQPPSVSVSPGQTASITCSGEKLSDKYVHWYQQKPGQSPVMVIYENDRRPSGIPERFSGSNSGNTATLTISGTQAMDEADYFCQFWDSTASAVFGGGTQLTVL")
3
>>> quantitative_readout("BKM0143 (scFv, also called BJM0407 VH-N60A) scFv: EIQLLESGGGLVQPGGSLRLSCAVSGFSITTTGYHWNWVRQAPGKGLEWVGYIYSSGSTSYAPSLKSRFTISRDTSKNTFYLQMNSLRAEDTAVYYCARGDWHYFDYWGQGTMVTVSSGGGGSGGGGSGGGGSGGGGSSSETTQPPSVSVSPGQTASITCSGEKLSDKYVHWYQQKPGQSPVMVIYENDRRPSGIPERFSGSNSGNTATLTISGTQAMDEADYFCQFWDSTNSAVFGGGTQLTVL")
1.45
>>> quantitative_readout("BJM1078 (BJM0407 Parental) (antibody, V domains shown) VH: EIQLLESGGGLVQPGGSLRLSCAVSGFSITTTGYHWNWVRQAPGKGLEWVGYIYSSGSTSYNPSLKSRFTISRDTSKNTFYLQMNSLRAEDTAVYYCARGDWHYFDYWGQGTMVTVSS VL: SSETTQPPSVSVSPGQTASITCSGEKLSDKYVHWYQQKPGQSPVMVIYENDRRPSGIPERFSGSNSGNTATLTISGTQAMDEADYFCQFWDSTNSAVFGGGTQLTVL")
1.48

Item: BKM0144 (scFv, also called BJM0411 VH-N60A-VL-D92A-N95A) scFv: EIQLLESGGGLVQPGGSLRLSCAVSGFSITTTGYHWNWVRQAPGKGLEWVGYIYSSGSTSYAPSLKSRFTISRDTSKNTFYLQMNSLRAEDTAVYYCARGDWHYFDYWGQGTMVTVSSGGGGSGGGGSGGGGSGGGGSDSVTTQSPLSLPVTLGQPASISCSGEKLSDKYVHWYQQRPGQSPRMLIYENDRRPSGVPDRFSGSNSGNDATLKISRVEAEDVGVYFCQFWASTASAVFGGGTKVEIK | Kd: 6.4

Item: BKM0145 (scFv, also called BJM0407 VH-N60A-VL-D92A-N95A) scFv: EIQLLESGGGLVQPGGSLRLSCAVSGFSITTTGYHWNWVRQAPGKGLEWVGYIYSSGSTSYAPSLKSRFTISRDTSKNTFYLQMNSLRAEDTAVYYCARGDWHYFDYWGQGTMVTVSSGGGGSGGGGSGGGGSGGGGSSSETTQPPSVSVSPGQTASITCSGEKLSDKYVHWYQQKPGQSPVMVIYENDRRPSGIPERFSGSNSGNTATLTISGTQAMDEADYFCQFWASTASAVFGGGTQLTVL | Kd: 4.2
